These entries and their values trace back to patent US20260151494A1.

- systemName: human serum albumin (human) (UniProt P02768)
- Sequence (P02768 25-609 limits assumed): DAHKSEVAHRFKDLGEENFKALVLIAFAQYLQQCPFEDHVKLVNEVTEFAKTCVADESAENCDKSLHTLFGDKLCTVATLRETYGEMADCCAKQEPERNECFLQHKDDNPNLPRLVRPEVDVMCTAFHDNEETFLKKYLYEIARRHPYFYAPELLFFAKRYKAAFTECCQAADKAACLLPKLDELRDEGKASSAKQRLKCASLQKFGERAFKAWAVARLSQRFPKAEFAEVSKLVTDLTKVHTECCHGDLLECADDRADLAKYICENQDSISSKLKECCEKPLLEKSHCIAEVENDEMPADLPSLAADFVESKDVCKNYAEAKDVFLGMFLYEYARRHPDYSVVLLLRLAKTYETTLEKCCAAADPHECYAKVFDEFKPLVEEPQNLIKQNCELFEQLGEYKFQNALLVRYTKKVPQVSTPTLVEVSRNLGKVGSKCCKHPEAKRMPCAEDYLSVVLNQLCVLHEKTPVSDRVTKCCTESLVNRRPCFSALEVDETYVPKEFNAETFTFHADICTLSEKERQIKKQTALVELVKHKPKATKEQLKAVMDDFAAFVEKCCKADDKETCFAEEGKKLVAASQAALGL
- assayMethodText: primary ELISA of colonies, luminescence; negative control antigen
endpointLabel: HSA, RLU (RLU)

These recorded examples may help you get a feel for the data.
{"columns": ["binder", "HSA, RLU (RLU)"],
 "data": [
  ["CD71-binding FN3 domain of SEQ ID NO: 114 (designed binder, not shown: small tags and cut ends) MLPAPKNLVVSRVTEDSARLSWTAPDAAFDSFHIVYHEPRPSGEAIWLFVPGSERSYDLTGLKPGTEYEVGIVSVKGGDLSVPLSAIFTT", 11600],
  ["CD71-binding FN3 domain of SEQ ID NO: 104 (designed binder, not shown: small tags and cut ends) MLPAPKNLVVSRVTEDSARLSWTAPDAAFDSFFIGYLEPQPPGEAIHLIVPGSERSYDLTGQKPGTEYNVTIQGVKGGFPSDPLVASFTT", 29400],
  ["CD71-binding FN3 domain of SEQ ID NO: 101 (designed binder, not shown: small tags and cut ends) MLPAPKNLVVSRVTEDSARLSWTAPDAAFDSFGIGYWERRWYGEAIVLTVPGSERSYDLTGLKPGTEYEVTIRGVKGGGYSGPLSAIFTT", 4350],
  ["CD71-binding FN3 domain of SEQ ID NO: 115 (designed binder, not shown: small tags and cut ends) MLPAPKNLVVSRVTEDSARLSWTAPDAAFDSFFIGYLEPQPPGEAIDLYVPGSERSYDLTGLKPGIEYNVTIQGVKGGFPSLPLQAHFTT", 5200],
  ["CD71-binding FN3 domain of SEQ ID NO: 112 (designed binder, not shown: small tags and cut ends) MLPAPKNLVVSRVTEDSARLSWTAPDAAFDSFFIGYLEPQPPGEAIDLWVPGSERSYDLTGLKPGTEYNVTIQGVKGGFPSMPLSAIFTT", 2650],
  ["CD71-binding FN3 domain of SEQ ID NO: 108 (designed binder, not shown: small tags and cut ends) MLPAPKNLVVSRVTEDSARLSWTAPDAAFDSFYIAYAEPRPDGEAILLQVPGSERSYDLTGLKPGTEYSVLIHGVKGGLLSSPLVAKFTT", 3350],
  ["CD71-binding FN3 domain of SEQ ID NO: 105 (designed binder, not shown: small tags and cut ends) MLPAPKNLVVSRVTEDSARLSWTAPDAAFDSFHIVYHEPRPSGEAIWLWVPGSERSYDLTGLKPGTEYEVGIVSVKGGDLSVPLSAIFTT", 3000]
]}

A = CD71-binding FN3 domain of SEQ ID NO: 117 (designed binder, not shown: small tags and cut ends) MLPAPKNLVVSRVTEDSARLSWTAPDAAFDSFFIGYLEPQPPGEAIWLLVPGSERSYDLTGLKPGTEYNVTIQGVKGGFPSTPLSAIFTT
B = CD71-binding FN3 domain of SEQ ID NO: 111 (designed binder, not shown: small tags and cut ends) MLPAPKNLVVSRVTEDSARLSWTAPDAAFDSFFIGYLEPQPPGEAISLWVPGSERSYDLTGLKPGTEYNVTIQGVKGGFPSIPLWAIFTT
Request: Looking only at measured HSA, RLU, which entry is lower, A or B ? Your answer should be the label of the entry you select.
Result: B
(B: 2600 RLU, A: 3750 RLU)
